- target_entity: human melatonin MT2 receptor (Homo sapiens)
- Construct: gene MTNR1B; receptor stably expressed in transfected CHO cells, membrane preparation
- Sequence (P49286 whole entry): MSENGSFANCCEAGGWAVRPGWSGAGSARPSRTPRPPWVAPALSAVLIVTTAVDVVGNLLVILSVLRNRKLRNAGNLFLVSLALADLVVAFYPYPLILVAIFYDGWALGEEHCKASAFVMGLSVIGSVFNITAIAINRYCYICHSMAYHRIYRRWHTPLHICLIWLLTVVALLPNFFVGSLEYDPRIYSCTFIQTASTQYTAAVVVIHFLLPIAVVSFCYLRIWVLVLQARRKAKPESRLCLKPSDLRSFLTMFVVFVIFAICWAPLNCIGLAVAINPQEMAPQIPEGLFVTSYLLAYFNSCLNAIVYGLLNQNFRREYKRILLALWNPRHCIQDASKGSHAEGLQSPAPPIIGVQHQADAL
- assay_protocol: […]-[…]iodomelatonin displacement, CHO membranes
- Type: binding
readout_type: log10 Ki (log10 of the value in nM)
Hello, just confirming the data are log10 of Ki with units of nM.

So what log10 Ki did COc1ccc2cccc(CC3NC(=O)NC3=O)c2c1 (stereo not drawn) [compound 12] get with human melatonin MT2 receptor (Homo sapiens)?
2.15

Moving on to the next molecule: COc1ccc2cccc(CCN3CCOC3=O)c2c1 [7a]
0.78

Moving on to the next molecule: COc1ccc2cccc(CCN3CCCC3=O)c2c1 [7b]
0.32

Moving on to the next molecule: COc1ccc2cccc(Cc3noc(=O)[nH]3)c2c1 [compound 4]
1.40

Moving on to the next molecule: COc1ccc2cccc3c2c1CN(C(C)=O)CC3 [9a]
2.67

Moving on to the next molecule: COc1ccc2cccc(CCNc3cc(C)on3)c2c1 [compound 15]
1.31

---

- target_entity: human melatonin MT1 receptor (Homo sapiens)
- Construct: gene MTNR1A; receptor stably expressed in transfected CHO cells, membrane preparation
- Sequence (P48039 whole entry): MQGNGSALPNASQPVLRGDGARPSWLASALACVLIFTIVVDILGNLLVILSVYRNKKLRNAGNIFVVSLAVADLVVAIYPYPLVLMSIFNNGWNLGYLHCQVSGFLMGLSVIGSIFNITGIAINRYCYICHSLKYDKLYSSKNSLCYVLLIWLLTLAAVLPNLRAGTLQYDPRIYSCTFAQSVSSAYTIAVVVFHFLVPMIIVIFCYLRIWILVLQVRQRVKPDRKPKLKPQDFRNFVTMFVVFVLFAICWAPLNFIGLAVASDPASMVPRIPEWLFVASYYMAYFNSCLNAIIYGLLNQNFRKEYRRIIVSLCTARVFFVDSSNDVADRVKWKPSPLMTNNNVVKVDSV
- assay_protocol: […]-[…]iodomelatonin displacement, CHO membranes
- Assay type: binding
Decision: Ki beneath 80 nM gives class 1; Ki meeting or exceeding 80 nM gives class 0.

Item `COc1ccc2cccc(CCNc3cc(C)on3)c2c1` : Ki beneath 80 nM, strictly?
class 1

Moving on to the next molecule: `COc1ccc2cccc(Cc3nn[nH]n3)c2c1`
class 0

Moving on to the next molecule: COc1ccc2cccc(CC3NC(=O)NC3=O)c2c1 (centres unmarked)
class 0

Moving on to the next molecule: COc1ccc2cccc(CC3=NOS(=O)N3)c2c1 (centres unmarked)
class 0

Moving on to the next molecule: `COc1ccc2cccc(CCNc3nccs3)c2c1`
class 1

Moving on to the next molecule: `COc1ccc2ccc3c(c2c1)CCN(C(C)=O)C3`
class 0

Moving on to the next molecule: `COc1ccc2cccc(CCNc3ncc(C)s3)c2c1`
class 0

Moving on to the next molecule: `COc1ccc2cccc3c2c1CN(C(C)=O)CC3`
class 0

Moving on to the next molecule: `COc1ccc2cccc(CCN3CCCC3=O)c2c1`
class 1

Moving on to the next molecule: `COc1ccc2cccc(CCN3CCOC3=O)c2c1`
class 0

---

- target_entity: human melatonin MT2 receptor (Homo sapiens)
- Construct: gene MTNR1B; receptor stably expressed in transfected CHO cells, membrane preparation
- assay_protocol: […]-[…]iodomelatonin displacement, CHO membranes
- Type: binding
readout_type: log10(Ki) (log10 of the value in nM)
Hello, just confirming the data are log10 of Ki with units of nM.

GET /values?readout=log10(Ki)&item= `COc1ccc2cccc(CCNc3nccs3)c2c1`
1.10

Moving on to the next molecule: `COc1ccc2ccc3c(c2c1)CCN(C(C)=O)C3`
2.90

Moving on to the next molecule: COc1ccc2cccc(CC3=NOS(=O)N3)c2c1 (centres unmarked)
3.11

Moving on to the next molecule: `COc1ccc2cccc(Cc3nn[nH]n3)c2c1`
2.28

Moving on to the next molecule: `COc1ccc2cccc(CCNc3ncc(C)s3)c2c1`
2.55

Data provenance: paper PMC6269769
